System: Primary human epidermal keratinocytes, HeKa
protocol description: HeKa cytokine release (IL-8)
Format: cell-based
condition description: 6 h at 37° C., normalised to 1.5×10^−7 M PEP0005, read-out: HeKa cytokine release (IL-8) Rel EC50 range
Listed below: EC50 values for each entry.

compound	EC50
CC1=C[C@]23C(=O)[C@@H](C=C(CO)[C@@H](O)[C@]2(O)[C@H]1Oc1nccc2ccsc12)[C@H]1[C@@H](C[C@H]3C)C1(C)C [Compound 123, 3-O-(Thieno[2,3-c]pyridine-7-yl)-ingenol]	< 20 nM
CC1=C[C@]23C(=O)[C@@H](C=C(CO)[C@@H](O)[C@]2(O)[C@H]1Oc1ncccc1C#N)[C@H]1[C@@H](C[C@H]3C)C1(C)C [Compound 116, 3-O-(3-Cyano-2-pyridyl)-ingenol]	≥ 100 nM
CC1=C[C@]23C(=O)[C@@H](C=C(CO)[C@@H](O)[C@]2(O)[C@H]1Oc1ccccn1)[C@H]1[C@@H](C[C@H]3C)C1(C)C [Compound 106, 3-O-(2-Pyridyl)-ingenol]	20 to 100 nM
CC1=C[C@]23C(=O)[C@@H](C=C(CO)[C@@H](O)[C@]2(O)[C@H]1Oc1ncccc1C(F)(F)F)[C@H]1[C@@H](C[C@H]3C)C1(C)C [Compound 118]	20 to 100 nM
COc1cccnc1O[C@H]1C(C)=C[C@]23C(=O)[C@@H](C=C(CO)[C@@H](O)[C@]12O)[C@H]1[C@@H](C[C@H]3C)C1(C)C [Compound 129, 3-O-(3-Methoxy-pyridin-2-yl)-ingenol]	≥ 100 nM
CC1=C[C@]23C(=O)[C@@H](C=C(CO)[C@@H](O)[C@]2(O)[C@H]1Oc1nccc2sccc12)[C@H]1[C@@H](C[C@H]3C)C1(C)C [Compound 127, 3-O-(Thieno[3,2-c]pyridine-4-yl)-ingenol]	20 to 100 nM
CC1=C[C@]23C(=O)[C@@H](C=C(CO)[C@@H](O)[C@]2(O)[C@H]1Oc1nccn1CCF)[C@H]1[C@@H](C[C@H]3C)C1(C)C [Compound 122]	≥ 100 nM
CC1=C[C@]23C(=O)[C@@H](C=C(CO)[C@@H](O)[C@]2(O)[C@H]1Oc1cccc(C(F)(F)F)n1)[C@H]1[C@@H](C[C@H]3C)C1(C)C [Compound 117]	≥ 100 nM
CC1=C[C@]23C(=O)[C@@H](C=C(CO)[C@@H](O)[C@]2(O)[C@H]1Oc1noc2ccccc12)[C@H]1[C@@H](C[C@H]3C)C1(C)C [Compound 102, 3-O-(1,2-Benzoxazol-3-yl)-ingenol]	< 20 nM

* * *

System: Primary human epidermal keratinocytes, HeKa
protocol description: HeKa cytokine release (IL-8)
Type: cell-based
condition description: 6 h at 37° C., normalised to 1.5×10^−7 M PEP0005, read-out: HeKa cytokine release (IL-8) Rel EC50 range
Method: Primary human epidermal keratinocytes, HeKa, are seeded (10.000 cells/well) in 96-well plates the day before the assay. […] Plates are centrifuged briefly to spin down cells at 4° C., the supernatant is removed and analysed by Meso Scale Discovery (MSD) 4-spot cytokine assay (Pro-inflammatory II Ultra Sensitive kit, MSD, MD, USA). […] The cytokine level is quantitated on a SECTOR™ Imager using a cytokine-specific Detection Antibody labelled with MSD SULFO-TAG™ reagent. […]
pEC50: −log10 of the molar value.
Listed below: pEC50 values for each entry.

molecule	pEC50
CC1=C[C@]23C(=O)[C@@H](C=C(CO)[C@@H](O)[C@]2(O)[C@H]1Oc1noc2cc(Cl)ccc12)[C@H]1[C@@H](C[C@H]3C)C1(C)C [Compound 125]	> 7.70
CC1=C[C@]23C(=O)[C@@H](C=C(CO)[C@@H](O)[C@]2(O)[C@H]1Oc1nccc(C(F)(F)F)n1)[C@H]1[C@@H](C[C@H]3C)C1(C)C [Compound 114]	≤ 7.00
CC1=C[C@]23C(=O)[C@@H](C=C(CO)[C@@H](O)[C@]2(O)[C@H]1Oc1nn(C)c2ccccc12)[C@H]1[C@@H](C[C@H]3C)C1(C)C [Compound 107, 3-O-(1-Methylindazol-3-yl)-ingenol]	≤ 7.00
CC1=C[C@]23C(=O)[C@@H](C=C(CO)[C@@H](O)[C@]2(O)[C@H]1Oc1noc2cccc(F)c12)[C@H]1[C@@H](C[C@H]3C)C1(C)C [Compound 128]	> 7.70
CC1=C[C@]23C(=O)[C@@H](C=C(CO)[C@@H](O)[C@]2(O)[C@H]1Oc1nccc2ccccc12)[C@H]1[C@@H](C[C@H]3C)C1(C)C [Compound 119, 3-O-(1-Isoquinolyl)-ingenol]	> 7.70

* * *

System: Primary human epidermal keratinocytes, HeKa
protocol description: HeKa cytokine release (IL-8)
Format: cell-based
condition description: 6 h at 37° C., normalised to 1.5×10^−7 M PEP0005, read-out: HeKa cytokine release (IL-8) Rel EC50 range
pEC50: −log10 of the molar value.
observable: pEC50

>>> print(df.to_string())
                           structure_string  experimental_result
0  COc1ccc2onc(O[C@H]3C(C)=C[C@]45C(=O)[C@@H](C=C(CO)[C@@H](O)[C@]34O)[C@H]3[C@@H](C[C@H]5C)C3(C)C)c2c1               > 7.70
1  CC1=C[C@]23C(=O)[C@@H](C=C(CO)[C@@H](O)[C@]2(O)[C@H]1Oc1cc(Br)ccn1)[C@H]1[C@@H](C[C@H]3C)C1(C)C         7.00 to 7.70
2  C=CCc1c(Cl)ncnc1O[C@H]1C(C)=C[C@]23C(=O)[C@@H](C=C(CO)[C@@H](O)[C@]12O)[C@H]1[C@@H](C[C@H]3C)C1(C)C               > 7.70
3  CC1=C[C@]23C(=O)[C@@H](C=C(CO)[C@@H](O)[C@]2(O)[C@H]1Oc1ncccc1C)[C@H]1[C@@H](C[C@H]3C)C1(C)C               ≤ 7.00
4  CC1=C[C@]23C(=O)[C@@H](C=C(CO)[C@@H](O)[C@]2(O)[C@H]1Oc1nccn1C)[C@H]1[C@@H](C[C@H]3C)C1(C)C               ≤ 7.00

* * *

Listed below: EC50 values for each entry.
System: Primary human epidermal keratinocytes, HeKa
protocol description: HeKa cytokine release (IL-8)
Type: cell-based
condition description: 6 h at 37° C., normalised to 1.5×10^−7 M PEP0005, read-out: HeKa cytokine release (IL-8) Rel EC50 range
observable: EC50

>>> print(df.to_string())
                           structure_string  experimental_result
0  CC1=C[C@]23C(=O)[C@@H](C=C(CO)[C@@H](O)[C@]2(O)[C@H]1Oc1ncccc1Cl)[C@H]1[C@@H](C[C@H]3C)C1(C)C       0.02 to 0.1 µM
1  CC1=C[C@]23C(=O)[C@@H](C=C(CO)[C@@H](O)[C@]2(O)[C@H]1Oc1ncccc1C=O)[C@H]1[C@@H](C[C@H]3C)C1(C)C             ≥ 0.1 µM
2  CC1=C[C@]23C(=O)[C@@H](C=C(CO)[C@@H](O)[C@]2(O)[C@H]1Oc1ccc(C(F)(F)F)cn1)[C@H]1[C@@H](C[C@H]3C)C1(C)C       0.02 to 0.1 µM

* * *

Listed below: EC50 values for each entry.
Tested on: Primary human epidermal keratinocytes, HeKa
protocol description: HeKa cytokine release (IL-8)
Assay type: cell-based
condition description: 6 h at 37° C., normalised to 1.5×10^−7 M PEP0005, read-out: HeKa cytokine release (IL-8) Rel EC50 range

compound	EC50
CC1=C[C@]23C(=O)[C@@H](C=C(CO)[C@@H](O)[C@]2(O)[C@H]1Oc1ncnc(Cl)c1C)[C@H]1[C@@H](C[C@H]3C)C1(C)C [Compound 101]	< 20 nM
CC1=C[C@]23C(=O)[C@@H](C=C(CO)[C@@H](O)[C@]2(O)[C@H]1Oc1nccn1C1CCCC1)[C@H]1[C@@H](C[C@H]3C)C1(C)C [Compound 120, 3-O-(1-Cyclopentylimidazol-2-yl)-ingenol]	< 20 nM
COc1ccc2c(O[C@H]3C(C)=C[C@]45C(=O)[C@@H](C=C(CO)[C@@H](O)[C@]34O)[C@H]3[C@@H](C[C@H]5C)C3(C)C)noc2c1 [Compound 132]	< 20 nM
CC1=C[C@]23C(=O)[C@@H](C=C(CO)[C@@H](O)[C@]2(O)[C@H]1Oc1ncccc1F)[C@H]1[C@@H](C[C@H]3C)C1(C)C [Compound 112, 3-O-(3-Fluoro-2-pyridyl)-ingenol]	≥ 100 nM
CC1=C[C@]23C(=O)[C@@H](C=C(CO)[C@@H](O)[C@]2(O)[C@H]1Oc1nccn1CC(F)F)[C@H]1[C@@H](C[C@H]3C)C1(C)C [Compound 121]	≥ 100 nM
